target: ULK1/Atg13 kinase complex (Homo sapiens (Human)); test: In vitro kinase assay (Kinase-Glo Plus luminescence, MBP 1-20 peptide substrate); settings: recombinant His-tagged ULK1/Atg13, 75 min at room temperature; salt form as in Table 1
METRIC NAME: IC50 (nM)
Provide only the numeric value, understood in nM.

Study these solved cases before continuing.
q: Given the molecule CC(N)C1CCC(C(=O)Nc2ccnc3[nH]c(-c4ncco4)cc23)CC1 (stereo not shown) , write its reported IC50.
a: 156

q: Given the molecule COC(=O)[C@@H](N)[C@H]1CC[C@H](C(=O)Nc2ccnc3[nH]c(-c4ccccc4)cc23)CC1 , write its reported IC50.
a: 22.9

q: Given the molecule C[C@@H](N)C1CCC(C(=O)Nc2ccnc3[nH]c(-c4ccccn4)cc23)CC1 (stereo partly shown) , write its reported IC50.
a: 110

q: Given the molecule CC(N)C1CCC(C(=O)Cc2ccnc3[nH]c(-c4cccc(C(F)(F)F)c4)cc23)CC1 (stereo not shown) , write its reported IC50.
a: 29.2

Next:
q: Given the molecule CC(N)C1CCC(C(=O)Nc2ccnc3[nH]c(-c4ccsc4)cc23)CC1 (single isomer, unassigned) [MSK-A176-peak 2] , write its reported IC50.
a: 23.6

* * *

molecular target: ULK1/Atg13 kinase complex (Homo sapiens (Human), UniProt O75385); experiment: In vitro kinase assay (Kinase-Glo Plus luminescence, MBP 1-20 peptide substrate); details: recombinant His-tagged ULK1/Atg13, 75 min at room temperature; salt form as in Table 1
Sequence (O75385 whole entry): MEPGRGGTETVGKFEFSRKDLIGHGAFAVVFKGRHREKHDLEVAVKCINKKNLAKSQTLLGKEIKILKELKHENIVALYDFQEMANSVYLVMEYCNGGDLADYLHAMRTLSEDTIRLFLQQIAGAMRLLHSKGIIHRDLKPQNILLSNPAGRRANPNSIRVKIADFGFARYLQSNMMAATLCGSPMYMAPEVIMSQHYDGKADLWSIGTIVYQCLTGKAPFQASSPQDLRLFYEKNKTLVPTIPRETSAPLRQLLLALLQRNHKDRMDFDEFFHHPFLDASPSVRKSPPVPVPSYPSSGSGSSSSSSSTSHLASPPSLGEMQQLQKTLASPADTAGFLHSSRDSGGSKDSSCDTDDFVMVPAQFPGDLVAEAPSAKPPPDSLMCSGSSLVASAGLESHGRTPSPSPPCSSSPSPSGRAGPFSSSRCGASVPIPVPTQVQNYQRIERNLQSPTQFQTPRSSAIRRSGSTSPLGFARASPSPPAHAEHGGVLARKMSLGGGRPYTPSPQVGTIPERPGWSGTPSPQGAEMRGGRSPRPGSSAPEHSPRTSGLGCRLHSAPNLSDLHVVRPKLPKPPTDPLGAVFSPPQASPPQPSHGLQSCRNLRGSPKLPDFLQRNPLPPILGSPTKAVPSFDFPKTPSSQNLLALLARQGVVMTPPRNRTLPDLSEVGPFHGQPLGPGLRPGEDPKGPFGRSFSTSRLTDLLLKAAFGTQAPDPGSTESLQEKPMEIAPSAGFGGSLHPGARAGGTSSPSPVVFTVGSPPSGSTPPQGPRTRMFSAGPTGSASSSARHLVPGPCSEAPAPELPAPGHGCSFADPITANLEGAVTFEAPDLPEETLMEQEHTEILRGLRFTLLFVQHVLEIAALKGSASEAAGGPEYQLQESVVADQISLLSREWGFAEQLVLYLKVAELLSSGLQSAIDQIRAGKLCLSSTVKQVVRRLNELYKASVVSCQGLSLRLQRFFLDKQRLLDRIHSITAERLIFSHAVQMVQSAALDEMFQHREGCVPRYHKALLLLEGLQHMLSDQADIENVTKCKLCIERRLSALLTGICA
Sequence (O75143 whole entry partner): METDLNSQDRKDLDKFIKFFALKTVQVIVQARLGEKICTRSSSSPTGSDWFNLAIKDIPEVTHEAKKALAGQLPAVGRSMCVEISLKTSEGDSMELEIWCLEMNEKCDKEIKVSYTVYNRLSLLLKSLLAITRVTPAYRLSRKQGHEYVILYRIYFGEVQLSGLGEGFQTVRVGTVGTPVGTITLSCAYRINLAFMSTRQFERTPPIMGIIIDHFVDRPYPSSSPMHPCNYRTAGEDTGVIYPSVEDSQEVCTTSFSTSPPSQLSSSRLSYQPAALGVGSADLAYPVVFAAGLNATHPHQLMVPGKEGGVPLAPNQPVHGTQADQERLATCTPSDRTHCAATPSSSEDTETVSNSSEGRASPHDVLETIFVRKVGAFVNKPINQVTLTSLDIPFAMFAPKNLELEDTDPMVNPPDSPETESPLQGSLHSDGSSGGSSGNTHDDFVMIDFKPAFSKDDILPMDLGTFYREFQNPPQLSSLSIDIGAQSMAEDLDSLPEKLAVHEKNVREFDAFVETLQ
Listing of entries alongside the reported IC50.
Provide only the numeric value, understood in nM.

Study these solved cases before continuing.
q: Given the compound CC(N)C1CCC(C(=O)Nc2ccnc3[nH]c(-c4cscn4)cc23)CC1 (stereo not shown) , write its reported IC50.
a: 109

q: Given the compound CC(N)C1CCC(C(=O)Nc2ccnc3[nH]c(-c4ccsc4)cc23)CC1 (stereo not shown) [MSK-A176] , write its reported IC50.
a: 5

q: Given the compound CC(N)C1CCC(C(=O)Nc2ccnc3[nH]c(-c4nccs4)cc23)CC1 (stereo not shown) , write its reported IC50.
a: 47

q: Given the compound CC(N)C1CCC(C(=O)Nc2ccnc3[nH]c(-c4ccc5ccccc5c4)cc23)CC1 (stereo not shown) , write its reported IC50.
a: 23.8

q: Given the compound CC(N)C1CCC(C(=O)Nc2ccnc3[nH]c(-c4cccc(F)c4)cc23)CC1 (single isomer, unassigned) [MSK-A191_peak 1] , write its reported IC50.
a: 40.8

Next:
q: Given the compound C[C@@H](N)C1CCC(C(=O)Nc2ccnc3occc23)CC1 (stereo partly shown) , write its reported IC50.
a: 2200

q: Given the compound CC(N)C1CCC(C(=O)Cc2ccnc3[nH]c(-c4cccc(C5CC5)c4)cc23)CC1 (stereo not shown) , write its reported IC50.
a: 26.3

q: Given the compound CC(N)C1CCC(C(=O)Nc2ccnc3[nH]c(-c4ccc(F)cc4)cc23)CC1 (single isomer, unassigned) [MSK-A184_peak 1] , write its reported IC50.
a: 15.5

q: Given the compound Cc1cccc(-c2cc3c(CC(=O)C4CCC(C(C)N)CC4)ccnc3[nH]2)c1 (stereo not shown) , write its reported IC50.
a: 20.2

q: Given the compound C[C@@H](N)C1CCC(C(=O)Nc2ccnc3[nH]c(-c4ccccc4)cc23)CC1 (stereo partly shown) , write its reported IC50.
a: 18

q: Given the compound CC(N)C1CCC(C(=O)Nc2ccnc3[nH]c(-c4cccc(F)c4)cc23)CC1 (single isomer, unassigned) [MSK-A191_peak 2] , write its reported IC50.
a: 59.1

q: Given the compound CC(N)C1CCC(C(=O)Nc2ccnc3[nH]c(-n4cccn4)cc23)CC1 (stereo not shown) , write its reported IC50.
a: 630

* * *

Listing of entries alongside the reported pIC50.
target: ULK1/Atg13 kinase complex (Homo sapiens (Human), UniProt O75385); assay: In vitro kinase assay (Kinase-Glo Plus luminescence, MBP 1-20 peptide substrate); details: recombinant His-tagged ULK1/Atg13, 75 min at room temperature; salt form as in Table 1
pIC50 is defined as minus the log10 of a concentration measured in mol/L.

Study these solved cases before continuing.
q: Given the compound CC(N)C1CCC(C(=O)Nc2ccnc3[nH]c(-c4ccsc4)cc23)CC1 (single isomer, unassigned) [MSK-A176-peak 1] , write its reported pIC50.
a: 7.25

q: Given the compound CC(N)C1CCC(C(=O)Nc2ccnc3[nH]c(-c4ccc(F)cc4)cc23)CC1 (single isomer, unassigned) [MSK-A184_peak 2] , write its reported pIC50.
a: 7.41

q: Given the compound CC(N)C1CCC(C(=O)Nc2ccnc3[nH]c(-c4ncc[nH]4)cc23)CC1 (centres unmarked) , write its reported pIC50.
a: 7.14

Next:
q: Given the compound CC(N)C1CCC(C(=O)Nc2ccnc3[nH]c(-c4nccn4C)cc23)CC1 (centres unmarked) , write its reported pIC50.
a: 5.84

q: Given the compound CC(N)C1CCC(C(=O)Nc2ccnc3[nH]c(-c4ncccn4)cc23)CC1 (centres unmarked) , write its reported pIC50.
a: 5.62

q: Given the compound CC(N)C1CCC(C(=O)Nc2ccnc3[nH]c(-n4ccnc4)cc23)CC1 (centres unmarked) , write its reported pIC50.
a: 6.29

q: Given the compound COc1ccc(-c2cc3c(CC(=O)C4CCC(C(C)N)CC4)ccnc3[nH]2)cc1 (centres unmarked) , write its reported pIC50.
a: 7.71

q: Given the compound CC(N)C1CCC(C(=O)Nc2ccnc3[nH]c(-c4cccs4)cc23)CC1 (centres unmarked) , write its reported pIC50.
a: 7.27

* * *

target: ULK1/Atg13 kinase complex (Homo sapiens (Human)); experiment: In vitro kinase assay (Kinase-Glo Plus luminescence, MBP 1-20 peptide substrate); details: recombinant His-tagged ULK1/Atg13, 75 min at room temperature; salt form as in Table 1
METRIC NAME: pIC50
pIC50 is defined as minus the log10 of a concentration measured in mol/L.

Study these solved cases before continuing.
q: Given the compound CC(N)C1CCC(C(=O)Cc2ccnc3[nH]c(-c4ccc(F)cc4)cc23)CC1 (stereo not shown) [MSK-A184] , write its reported pIC50.
a: 7.72

q: Given the compound CC(N)C1CCC(C(=O)Cc2ccnc3[nH]c(-c4ccc(C#N)cc4)cc23)CC1 (stereo not shown) [MSK-A189] , write its reported pIC50.
a: 7.74

Next:
q: Given the compound COC(=O)[C@H](N)[C@H]1CC[C@H](C(=O)Nc2ccnc3[nH]c(-c4ccccc4)cc23)CC1 [MSK-A183] , write its reported pIC50.
a: 6.73

q: Given the compound CC(N)C1CCC(C(=O)Cc2ccnc3[nH]c(-c4cccc(F)c4)cc23)CC1 (stereo not shown) [MSK-A191] , write its reported pIC50.
a: 7.69
